Counter-ions that a name gives are not always drawn.
MEASURED ENDPOINT: Ki (nM)
Dear colleague, please return just the value in nM, with no unit written.

Exercise: Give recorded Ki with Neuropeptide Y5 (Rattus norvegicus) for the following compound: O=C(CN1CCC(N2C(=O)OCc3ccccc32)CC1)Nc1ccc2c(c1)-c1ccccc1C2=O [Example 3, hydrochloride]
Sequence (Q63634 whole entry): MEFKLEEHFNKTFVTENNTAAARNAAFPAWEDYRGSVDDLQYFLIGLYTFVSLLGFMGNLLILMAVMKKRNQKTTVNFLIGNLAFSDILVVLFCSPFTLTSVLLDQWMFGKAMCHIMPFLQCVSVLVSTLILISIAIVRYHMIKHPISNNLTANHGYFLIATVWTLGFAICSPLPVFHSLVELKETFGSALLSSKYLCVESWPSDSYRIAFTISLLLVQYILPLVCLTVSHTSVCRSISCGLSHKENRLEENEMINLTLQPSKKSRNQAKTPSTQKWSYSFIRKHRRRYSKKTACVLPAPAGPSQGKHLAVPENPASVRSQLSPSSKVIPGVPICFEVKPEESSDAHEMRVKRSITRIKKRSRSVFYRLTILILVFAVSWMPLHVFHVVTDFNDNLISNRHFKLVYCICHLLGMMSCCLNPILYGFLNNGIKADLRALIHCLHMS
Solution: 6.4

Exercise: Give recorded Ki with Neuropeptide Y5 (Rattus norvegicus) for the following compound: O=C(CN1CCC(N2C(=O)OCc3ccccc32)CC1)Nc1ccc2c(c1)CCCC2=O [Example 6, hydrochloride]
Solution: 18.4

Exercise: Give recorded Ki with Neuropeptide Y5 (Rattus norvegicus) for the following compound: Cc1ccc2c(c1)COC(=O)N2C1CCN(CC(=O)Nc2ccc3c(c2)-c2ccccc2C3=O)CC1 [Example 20, hydrochloride]
Solution: 0.87
